Reported Kd values are given for each entry in this list.
# SYSTEM_TESTED: UniProt:Q8N1Q1
# Sequence (Q8N1Q1 whole entry): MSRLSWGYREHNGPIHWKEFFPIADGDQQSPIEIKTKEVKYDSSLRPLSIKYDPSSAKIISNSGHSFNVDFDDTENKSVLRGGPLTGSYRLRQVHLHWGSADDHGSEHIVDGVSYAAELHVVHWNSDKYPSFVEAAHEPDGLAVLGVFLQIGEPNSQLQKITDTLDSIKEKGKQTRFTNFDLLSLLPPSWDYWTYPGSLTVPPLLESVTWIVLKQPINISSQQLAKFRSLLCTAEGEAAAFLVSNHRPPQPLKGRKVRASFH
# EXPERIMENT_DESCRIPTION: Thermal shift assay (TSA), recombinant CAXIII
# CONDITION_DETAILS: 37 °C, pH 7.0, observed (not intrinsic)
Give the number; nM is assumed, so skip it.

> print(dat)
                                   compound  recorded.value
1  NS(=O)(=O)c1c(F)c(F)c(S(=O)(=O)CCC(=O)Nc2ccc3c(c2)C(=O)OC32c3ccc(O)cc3Oc3cc(O)ccc32)c(NC2CCCCCCC2)c1F [GZ19-32]            0.67
2  NS(=O)(=O)c1c(F)c(F)c(S(=O)(=O)CCC(=O)NCCCC(=O)Nc2ccc3c(c2)C(=O)OC32c3ccc(O)cc3Oc3cc(O)ccc32)c(NC2CCCCCCC2)c1F [GZ20-40]               1
3  NS(=O)(=O)c1c(F)c(F)c(S(=O)(=O)CCC(=O)O)c(NC2CCCCCCC2)c1F [GZ18-23]              10

Okay, now this compound:
What measured Kd is associated with NS(=O)(=O)c1c(F)c(F)c(S(=O)(=O)CCC(=O)Nc2ccc3c(c2)C(=O)OC32c3ccc(O)cc3Oc3cc(O)ccc32)c(F)c1F [GZ19-31] on UniProt:Q8N1Q1?
1.7

----------
Reported pKd values are given for each entry in this list.
# SYSTEM_TESTED: CAI (Homo sapiens, UniProt P00915)
# Sequence (P00915 whole entry): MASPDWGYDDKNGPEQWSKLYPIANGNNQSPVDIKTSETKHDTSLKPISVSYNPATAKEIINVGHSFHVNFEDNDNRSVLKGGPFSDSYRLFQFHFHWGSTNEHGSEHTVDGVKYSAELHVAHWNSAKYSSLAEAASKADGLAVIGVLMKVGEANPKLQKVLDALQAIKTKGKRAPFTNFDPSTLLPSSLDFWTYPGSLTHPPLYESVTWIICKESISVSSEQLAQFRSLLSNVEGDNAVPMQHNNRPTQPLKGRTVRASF
# EXPERIMENT_DESCRIPTION: Thermal shift assay (TSA), recombinant CAI
# CONDITION_DETAILS: 37 °C, pH 7.0, observed (not intrinsic)
pKd field: float, defined as -log10 of concentration (mol/L).

Worked set:
> print(dat)
                            chemical.string                       system.tested  attribute.measured  recorded.value
1  NS(=O)(=O)c1c(F)c(F)c(S(=O)(=O)CCC(=O)Nc2ccc3c(c2)C(=O)OC32c3ccc(O)cc3Oc3cc(O)ccc32)c(NC2CCCCCCC2)c1F  CAI (Homo sapiens, UniProt P00915)                 pKd            6.30
2  NS(=O)(=O)c1c(F)c(F)c(S(=O)(=O)CCC(=O)NCCCC(=O)Nc2ccc3c(c2)C(=O)OC32c3ccc(O)cc3Oc3cc(O)ccc32)c(NC2CCCCCCC2)c1F  CAI (Homo sapiens, UniProt P00915)                 pKd            6.30
3  NS(=O)(=O)c1c(F)c(F)c(S(=O)(=O)CCC(=O)O)c(NC2CCCCCCC2)c1F  CAI (Homo sapiens, UniProt P00915)                 pKd            5.30

Okay, now this compound:
Fill in: pKd of NS(=O)(=O)c1c(F)c(F)c(S(=O)(=O)CCC(=O)Nc2ccc3c(c2)C(=O)OC32c3ccc(O)cc3Oc3cc(O)ccc32)c(F)c1F is ___
11.30

----------
Reported Kd values are given for each entry in this list.
# SYSTEM_TESTED: CAXIV (Homo sapiens, UniProt Q9ULX7)
# Construct: Isozymes CAIX, CAXII, and CAXIV were the catalytic domains of the proteins
# Sequence (Q9ULX7 20-278 limits assumed): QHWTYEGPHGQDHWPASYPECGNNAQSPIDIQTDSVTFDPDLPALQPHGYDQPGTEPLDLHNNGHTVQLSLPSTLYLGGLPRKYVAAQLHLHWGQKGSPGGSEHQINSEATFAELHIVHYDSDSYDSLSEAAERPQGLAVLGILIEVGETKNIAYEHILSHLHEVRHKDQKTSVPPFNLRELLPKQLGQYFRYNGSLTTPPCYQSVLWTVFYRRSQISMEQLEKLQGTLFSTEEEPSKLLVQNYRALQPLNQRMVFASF
# EXPERIMENT_DESCRIPTION: Thermal shift assay (TSA), recombinant CAXIV
# CONDITION_DETAILS: 37 °C, pH 7.0, observed (not intrinsic)

> print(dat)
                                   molecule  recorded.value
1  CS(=O)(=O)c1c(F)c(F)c(SCCC(=O)Nc2ccc3c(c2)C(=O)OC32c3ccc(O)cc3Oc3cc(O)ccc32)c(F)c1F [GZ19-33]     > 100000 nM
2  NS(=O)(=O)c1c(F)c(F)c(S(=O)(=O)CCC(=O)O)c(NC2CCCCCCC2)c1F [GZ18-23]          3.3 nM
3  NS(=O)(=O)c1c(F)c(F)c(S(=O)(=O)CCC(=O)NCCCC(=O)Nc2ccc3c(c2)C(=O)OC32c3ccc(O)cc3Oc3cc(O)ccc32)c(NC2CCCCCCC2)c1F [GZ20-40]          2.5 nM
4  NS(=O)(=O)c1c(F)c(F)c(S(=O)(=O)CCC(=O)Nc2ccc3c(c2)C(=O)OC32c3ccc(O)cc3Oc3cc(O)ccc32)c(NC2CCCCCCC2)c1F [GZ19-32]          3.3 nM

Okay, now this molecule:
Fill in: Kd of NS(=O)(=O)c1c(F)c(F)c(S(=O)(=O)CCC(=O)Nc2ccc3c(c2)C(=O)OC32c3ccc(O)cc3Oc3cc(O)ccc32)c(F)c1F [GZ19-31] is ___
25 nM

----------
# SYSTEM_TESTED: CAVII (Homo sapiens, UniProt P43166)
# Sequence (P43166 whole entry): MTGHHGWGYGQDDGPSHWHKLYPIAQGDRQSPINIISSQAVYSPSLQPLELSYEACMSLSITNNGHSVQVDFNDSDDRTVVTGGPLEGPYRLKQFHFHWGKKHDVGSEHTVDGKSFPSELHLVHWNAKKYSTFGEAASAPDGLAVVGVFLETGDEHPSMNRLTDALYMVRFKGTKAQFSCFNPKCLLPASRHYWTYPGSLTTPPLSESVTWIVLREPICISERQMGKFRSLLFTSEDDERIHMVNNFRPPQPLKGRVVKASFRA
# EXPERIMENT_DESCRIPTION: Thermal shift assay (TSA), recombinant CAVII
# CONDITION_DETAILS: 37 °C, pH 7.0, observed (not intrinsic)
Reported Kd values are given for each entry in this list.
Give the number; nM is assumed, so skip it.

Worked set:
> print(dat)
                                   compound  attribute.measured  recorded.value
1  NS(=O)(=O)c1c(F)c(F)c(S(=O)(=O)CCC(=O)Nc2ccc3c(c2)C(=O)OC32c3ccc(O)cc3Oc3cc(O)ccc32)c(F)c1F [GZ19-31]                  Kd               2
2  NS(=O)(=O)c1c(F)c(F)c(S(=O)(=O)CCC(=O)NCCCC(=O)Nc2ccc3c(c2)C(=O)OC32c3ccc(O)cc3Oc3cc(O)ccc32)c(NC2CCCCCCC2)c1F [GZ20-40]                  Kd               7
3  NS(=O)(=O)c1c(F)c(F)c(S(=O)(=O)CCC(=O)O)c(NC2CCCCCCC2)c1F [GZ18-23]                  Kd              43

Fill in: Kd of NS(=O)(=O)c1c(F)c(F)c(S(=O)(=O)CCC(=O)Nc2ccc3c(c2)C(=O)OC32c3ccc(O)cc3Oc3cc(O)ccc32)c(NC2CCCCCCC2)c1F [GZ19-32] is ___
5

----------
# Tested on: CA activity in hypoxic HeLa WT cells
# EXPERIMENT_DESCRIPTION: CA activity by gas-analysis mass spectrometry in live hypoxic HeLa WT cells
# Type: cell-based, human
# CONDITION_DETAILS: Homo sapiens; hypoxic HeLa cells, gas-analysis MS, Fig. 7A; read-out: k, inhibition of CA activity (Hill fit)
ATTRIBUTE_MEASURED: pIC50
pIC50 field: float, defined as -log10 of concentration (mol/L).

Fill in: pIC50 of NS(=O)(=O)c1c(F)c(F)c(S(=O)(=O)CCC(=O)O)c(NC2CCCCCCC2)c1F [GZ18-23] is ___
9.04

----------
# SYSTEM_TESTED: CAIII (Homo sapiens, UniProt P07451)
# Construct: made in house; host or cells: E. coli
# Sequence (P07451 whole entry): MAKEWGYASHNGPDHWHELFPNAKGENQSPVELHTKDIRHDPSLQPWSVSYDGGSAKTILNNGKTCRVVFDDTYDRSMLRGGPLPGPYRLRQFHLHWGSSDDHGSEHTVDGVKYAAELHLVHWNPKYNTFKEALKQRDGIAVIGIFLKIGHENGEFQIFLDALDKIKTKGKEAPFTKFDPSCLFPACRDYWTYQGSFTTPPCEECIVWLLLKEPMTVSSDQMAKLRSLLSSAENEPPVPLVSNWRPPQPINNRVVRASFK
# EXPERIMENT_DESCRIPTION: Thermal shift assay (TSA), recombinant CAIII
# Assay type: binding
# CONDITION_DETAILS: 37 °C, pH 7.0, observed (not intrinsic)
ATTRIBUTE_MEASURED: pKd
pKd field: float, defined as -log10 of concentration (mol/L).

Fill in: pKd of NS(=O)(=O)c1c(F)c(F)c(S(=O)(=O)CCC(=O)Nc2ccc3c(c2)C(=O)OC32c3ccc(O)cc3Oc3cc(O)ccc32)c(F)c1F is ___
5.60

Same lookup for NS(=O)(=O)c1c(F)c(F)c(S(=O)(=O)CCC(=O)Nc2ccc3c(c2)C(=O)OC32c3ccc(O)cc3Oc3cc(O)ccc32)c(NC2CCCCCCC2)c1F , please.
5.78

Same lookup for NS(=O)(=O)c1c(F)c(F)c(S(=O)(=O)CCC(=O)NCCCC(=O)Nc2ccc3c(c2)C(=O)OC32c3ccc(O)cc3Oc3cc(O)ccc32)c(NC2CCCCCCC2)c1F , please.
5.17

----------
Reported Kd values are given for each entry in this list.
# SYSTEM_TESTED: CAXII (Homo sapiens, UniProt O43570)
# Construct: Isozymes CAIX, CAXII, and CAXIV were the catalytic domains of the proteins
# Sequence (O43570 30-289 limits assumed): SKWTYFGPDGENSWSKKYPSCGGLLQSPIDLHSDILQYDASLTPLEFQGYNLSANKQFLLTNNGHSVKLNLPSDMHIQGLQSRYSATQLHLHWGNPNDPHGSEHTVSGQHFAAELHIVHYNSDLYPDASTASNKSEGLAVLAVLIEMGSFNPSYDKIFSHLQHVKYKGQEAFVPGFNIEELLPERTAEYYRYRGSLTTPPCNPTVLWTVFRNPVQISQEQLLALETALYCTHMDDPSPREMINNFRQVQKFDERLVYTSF
# EXPERIMENT_DESCRIPTION: Thermal shift assay (TSA), recombinant CAXII
# CONDITION_DETAILS: 37 °C, pH 7.0, observed (not intrinsic)
Give the number; nM is assumed, so skip it.

Worked set:
> print(dat)
                            chemical.string  attribute.measured  recorded.value
1  NS(=O)(=O)c1c(F)c(F)c(S(=O)(=O)CCC(=O)Nc2ccc3c(c2)C(=O)OC32c3ccc(O)cc3Oc3cc(O)ccc32)c(F)c1F                  Kd              40
2  NS(=O)(=O)c1c(F)c(F)c(S(=O)(=O)CCC(=O)Nc2ccc3c(c2)C(=O)OC32c3ccc(O)cc3Oc3cc(O)ccc32)c(NC2CCCCCCC2)c1F                  Kd             1.3

Fill in: Kd of NS(=O)(=O)c1c(F)c(F)c(S(=O)(=O)CCC(=O)NCCCC(=O)Nc2ccc3c(c2)C(=O)OC32c3ccc(O)cc3Oc3cc(O)ccc32)c(NC2CCCCCCC2)c1F is ___
7
